# normalized growth values compiled below
Assay: chemical genetic growth profiling, strain panel (AID 1159580);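 further: tested at 20 µM; growth read once vehicle control cultures reached saturation at 30 °C; 1 = growth at the plate median or of vehicle wells; lower values mean less growth of the strain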
Conditions: S. cerevisiae deletion strains, growth OD, locus YML120C, strain ndi1, active compounds read low
In all, about 5,500 compounds went through this assay and about 2,000 (36%) were called active. Another 18% or so got no clear call; they are omitted. Some of the results follow.
Just the number, please.

Past entries and their recorded results:
INSERT INTO measurements (compound, property_name, numeric_result) VALUES
  ('CCOc1ccc(NC(C)=O)cc1', 'normalized growth', 1.02),
  ('COc1cc(/C=C/C(=O)N2CCC=CC2=O)cc(OC)c1OC', 'normalized growth', 0.972),
  ('CC(NCCC(c1ccccc1)c1ccccc1)c1ccccc1 (stereo not drawn)', 'normalized growth', 0.886),
  ('CC1=NN(c2ccccc2)C(=O)C1', 'normalized growth', 0.974);

Quick check: normalized growth of O=c1[nH]cnc2c1ncn2C1O[C@H](CO)[C@@H](O)[C@H]1O (stereo partly drawn) ?
1.01

Look up normalized growth: COc1ccc(C(=O)c2ccc(O)cc2)c(O)c1O
0.954

For c1ccc2c(Cc3c[nH]c4ccccc34)c[nH]c2c1 , what is its reported normalized growth?
0.324

Suppose we examine the compound COc1cc2c(cc1O)CCNC2C (stereo not drawn) ; what normalized growth value has been reported?
0.991

Which normalized growth value is on record for CC[C@H]1CN2CCc3cc(OC)c(OC)cc3C2C[C@@H]1CC1NCCc2cc(OC)c(OC)cc21 (stereo partly drawn) ?
0.977

Need normalized growth, item O=c1oc2c(O)c(O)cc3c(=O)oc4c(O)c(O)cc1c4c23
0.581

What value of normalized growth has been recorded for this entry: CC[C@H]1OC(=O)[C@H](C)[C@@H](O[C@H]2C[C@@](C)(OC)[C@@H](O)[C@H](C)O2)[C@H](C)[C@@H](O[C@@H]2O[C@H](C)C[C@H](N(C)C)[C@H]2O)[C@](C)(O)C[C@@H](C)[C@@H]2N[C@@H](COCCOC)O[C@H]([C@H]2C)[C@]1(C)O
0.997

###

Assay: chemical genetic growth profiling, strain panel (AID 1159580);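 further: tested at 20 µM; growth read once vehicle control cultures reached saturation at 30 °C; 1 = growth at the plate median or of vehicle wells; lower values mean less growth of the strain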
Conditions: S. cerevisiae deletion strains, growth OD, locus YNL307C, strain MCK1, active compounds read low
In all, about 5,500 compounds went through this assay and about 2,000 (36%) were called active. Not shown: some 18% with an inconclusive outcome. The list shows a part of the results.
Output 1 for records whose normalized growth is lower than 1, 0 for records at or above 1.

INSERT INTO results (compound_string, group_label) VALUES
  ('CC1=C(O)C(=O)C=C2C1=CC=C1[C@@]2(C)CC[C@@]2(C)[C@@H]3C[C@](C)(C(=O)O)CC[C@]3(C)CC[C@]12C', 1);

Hello, is normalized growth of the following molecule strictly smaller than 1? Cc1onc(-c2ccccc2Cl)c1C(=O)N[C@@H]1C(=O)N2[C@@H]1SC(C)(C)[C@@H]2C(=O)O
0

###

Experiment: chemical genetic growth profiling, strain panel (AID 1159580);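 further: tested at 20 µM; growth read once vehicle control cultures reached saturation at 30 °C; 1 = growth at the plate median or of vehicle wells; lower values mean less growth of the strain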
Settings: S. cerevisiae deletion strains, growth OD, locus YHR129C, strain ARP1
Among all 5,500 compounds or so, about 2,000 (36%) were called active. About 18% were inconclusive and are not listed. Rule as the data show it: active = normalized growth mostly below about 0.91 (no sharp cut-off); inconclusive = no clear call, values can overlap the other calls; inactive = mostly above about 0.92. The list shows a part of the results.
Thanks in advance; please answer with one of these: 1.0 (active), 0.0 (inactive)

INSERT INTO assay_data (molecule, group_label) VALUES
  ('CC(=O)Oc1cccc2c1C(=O)c1c(OC(C)=O)cc(C(=O)O)cc1C2=O', 0.0);

Can you look up the reported call for CC1=CC2C(C(C)C)CCC(C)(O)C2CC1 (stereo not given) for me?
0.0

Recorded call for CC[C@@H](CO)NC(=O)[C@@H]1C=C2c3cccc4[nH]cc(c34)C[C@H]2N(C)C1 ?
0.0

For CN1CCN(CC(=O)N2c3ccccc3C(=O)Nc3cccnc32)CC1 , what call appears in the results of this test?
0.0

# fetch the recorded call for CCCCCCCCCCCCCCCCCCOCC(O)CO (stereo not given) here
0.0
